- System: L1210 leukemia ip in BDF1 mice, survival T/C
- method summary: NCI In Vivo Anticancer Drug Screen. Data for tumor model L1210 Leukemia (intraperitoneal) in B6D2F1 (BDF1) mice
- conditions used: endpoint: mean survival time; dose: 400.0 mg/kg/injection; schedule: Q04DX002 (ip); vehicle: saline with Tween-80; higher = longer survival
Toxic doses and inconclusive results are not listed.
Catalogue of molecules with associated T/C

>  <molecule>
NC(=S)c1ccc(Cl)cc1

>  <tested on>
L1210 leukemia ip in BDF1 mice, survival T/C

>  <T/C>
97 % of control

$$$$
>  <molecule>
N#CC1(Nc2ccc3c4c(cccc24)CC3)CCCCC1

>  <tested on>
L1210 leukemia ip in BDF1 mice, survival T/C

>  <T/C>
95 % of control

$$$$
>  <molecule>
C=C(CCCCCCCCCCCCCCCC)C(=O)O

>  <tested on>
L1210 leukemia ip in BDF1 mice, survival T/C

>  <T/C>
88 % of control

$$$$
>  <molecule>
CN(C)C(=O)Nc1ccc(Cl)cc1Cl

>  <tested on>
L1210 leukemia ip in BDF1 mice, survival T/C

>  <T/C>
121 % of control

$$$$

Task: Respond only with T/C recorded for "Cc1ccc(N=Cc2cc(Br)ccc2O)cc1Cl"
Output: 96 % of control

Task: Read off the recorded T/C for "CCN=C(NC(=S)Nc1ccc(Cl)cc1)SCC"
Output: 95 % of control

Task: Read off the recorded T/C for CCC(C)NC(=O)/C=C\C(=O)O (stereo not drawn)
Output: 100 % of control

Task: Give the reported T/C for this molecule. "COc1ccc(C(=O)NC(=S)Nc2ccc(CCO)cc2)cc1"
Output: 98 % of control

Task: Item "CO[CH2][Pb]([c]1ccccc1)([c]1ccccc1)[c]1ccccc1" : provide T/C
Output: 94 % of control

Task: Tell me measured T/C for CCC1(c2ccccc2)C(=O)N(C)C(=O)N(CBr)C1=O (stereo not drawn) please.
Output: 103 % of control

Task: Read off the recorded T/C for "COc1ccc(NC(=S)Nc2ccccc2)cc1"
Output: 108 % of control

Task: Read off the recorded T/C for "CC(C)(C)c1cc(C=O)cc(C(C)(C)C)c1O"
Output: 91 % of control

Task: Give a short answer stating reported T/C for "C/C=C/c1ccc(O)c(OC)c1" .
Output: 86 % of control
